The values you see were collected from patent US10918626B2.

# ASSAY EXPLANATION: Pharmacokinetic enhancement of R7227 by ritonavir in healthy adults
# Format: in vivo, human
# RECORDED CONDITIONS: human, plasma, po, 100 mg, Day 3 (with ritonavir single dose), R7227 100 mg oral, N 12

>  <SMILES ENTRY>
CC(C)(C)OC(=O)N[C@H]1CCCCC/C=C\[C@@H]2C[C@@]2(C(=O)NS(=O)(=O)C2CC2)NC(=O)[C@@H]2C[C@@H](OC(=O)N3Cc4cccc(F)c4C3)CN2C1=O

>  <MEASUREMENT UNITS>
ng·h/mL

>  <AUC(0-inf)>
82

$$$$

###

# ASSAY EXPLANATION: Pharmacokinetic enhancement of R7227 by ritonavir in healthy adults
# Type: in vivo, human
# RECORDED CONDITIONS: human, plasma, po, 100 mg, Day 1 (alone), R7227 100 mg single oral dose, N 12
ASSAY METRIC: AUC(0-inf) (ng·h/mL)

>  <COMPOUND>
CC(C)(C)OC(=O)N[C@H]1CCCCC/C=C\[C@@H]2C[C@@]2(C(=O)NS(=O)(=O)C2CC2)NC(=O)[C@@H]2C[C@@H](OC(=O)N3Cc4cccc(F)c4C3)CN2C1=O [R7227]

>  <VALUE MEASURED>
14.4

$$$$

###

# EXPERIMENTAL TARGET: NS3/4A protease (Hepatitis C virus genotype 1a)
# Construct: a serine protease encoded in the NS3 region
# Sequence (P27958 1658-1711): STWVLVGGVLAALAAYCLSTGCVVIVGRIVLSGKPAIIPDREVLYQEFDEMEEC
# Sequence (P27958 1027-1657): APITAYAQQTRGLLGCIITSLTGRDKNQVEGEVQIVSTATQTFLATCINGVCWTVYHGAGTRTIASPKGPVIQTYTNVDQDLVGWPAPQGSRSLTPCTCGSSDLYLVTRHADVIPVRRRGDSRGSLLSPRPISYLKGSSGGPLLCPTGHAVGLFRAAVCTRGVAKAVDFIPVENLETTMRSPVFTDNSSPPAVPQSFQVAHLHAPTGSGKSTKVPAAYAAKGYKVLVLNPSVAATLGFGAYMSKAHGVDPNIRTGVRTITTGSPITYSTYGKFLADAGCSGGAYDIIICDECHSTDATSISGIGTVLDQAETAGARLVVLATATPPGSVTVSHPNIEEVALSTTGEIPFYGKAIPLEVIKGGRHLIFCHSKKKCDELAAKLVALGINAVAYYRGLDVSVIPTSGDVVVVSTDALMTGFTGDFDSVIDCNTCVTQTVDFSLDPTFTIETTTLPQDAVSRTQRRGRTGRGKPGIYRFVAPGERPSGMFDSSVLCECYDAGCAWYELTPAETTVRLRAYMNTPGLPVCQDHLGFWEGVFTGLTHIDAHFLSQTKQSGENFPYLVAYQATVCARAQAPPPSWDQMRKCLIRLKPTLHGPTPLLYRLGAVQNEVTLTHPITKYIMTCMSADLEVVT
# ASSAY EXPLANATION: NS3/4A proteolysis inhibition
# RECORDED CONDITIONS: read-out: 50% inhibitory concentration (IC50), NS3/4A proteolysis
pIC50: −log10 of the molar value.

>  <COMPOUND>
CC(C)(C)OC(=O)N[C@H]1CCCCC/C=C\[C@@H]2C[C@@]2(C(=O)NS(=O)(=O)C2CC2)NC(=O)[C@@H]2C[C@@H](OC(=O)N3Cc4cccc(F)c4C3)CN2C1=O [R7227]

>  <pIC50>
≥ 9.65

$$$$

###

# ASSAY EXPLANATION: Pharmacokinetic enhancement of R7227 by ritonavir in healthy adults
# Type: in vivo, human
# RECORDED CONDITIONS: human, plasma, oral, 100 mg, Day 1 (alone), N 12, includes extrapolated C12 h values from 4 subjects with BLQ values on day 1; read-out: C12 h, GLSM

>  <SMILES ENTRY>
CC(C)(C)OC(=O)N[C@H]1CCCCC/C=C\[C@@H]2C[C@@]2(C(=O)NS(=O)(=O)C2CC2)NC(=O)[C@@H]2C[C@@H](OC(=O)N3Cc4cccc(F)c4C3)CN2C1=O

>  <concentration at 12 h>
0.01 ng/mL

$$$$

###

# ASSAY EXPLANATION: Pharmacokinetic enhancement of R7227 by ritonavir in healthy adults
# Assay type: in vivo, human
# RECORDED CONDITIONS: human, plasma, oral, Day 3 (with ritonavir single dose), N 8, non-missing non-BLQ data; read-out: C12 h, GLSM
ASSAY METRIC: concentration at 12 h (ng/mL)

>  <COMPOUND>
CC(C)(C)OC(=O)N[C@H]1CCCCC/C=C\[C@@H]2C[C@@]2(C(=O)NS(=O)(=O)C2CC2)NC(=O)[C@@H]2C[C@@H](OC(=O)N3Cc4cccc(F)c4C3)CN2C1=O [R7227]

>  <MEASUREMENT UNITS>
ng/mL

>  <VALUE MEASURED>
1

$$$$

###

# ASSAY EXPLANATION: Pharmacokinetic enhancement of R7227 by ritonavir in healthy adults
# Assay type: in vivo, human
# RECORDED CONDITIONS: human, plasma, po, 100 mg, Day 1 (alone), R7227 100 mg single oral dose, N 12

>  <MOLECULE>
CC(C)(C)OC(=O)N[C@H]1CCCCC/C=C\[C@@H]2C[C@@]2(C(=O)NS(=O)(=O)C2CC2)NC(=O)[C@@H]2C[C@@H](OC(=O)N3Cc4cccc(F)c4C3)CN2C1=O [R7227]

>  <MEASUREMENT UNITS>
ng/mL

>  <Cmax>
8.4

$$$$

###

# ASSAY EXPLANATION: Pharmacokinetic enhancement of R7227 by ritonavir in healthy adults
# Format: in vivo, human
# RECORDED CONDITIONS: human, plasma, oral, Day 12 (with ritonavir multiple dose), N 8, non-missing non-BLQ data; read-out: C12 h, GLSM

>  <COMPOUND>
CC(C)(C)OC(=O)N[C@H]1CCCCC/C=C\[C@@H]2C[C@@]2(C(=O)NS(=O)(=O)C2CC2)NC(=O)[C@@H]2C[C@@H](OC(=O)N3Cc4cccc(F)c4C3)CN2C1=O [R7227]

>  <concentration at 12 h [ng/mL]>
0.53

$$$$

###

# ASSAY EXPLANATION: Pharmacokinetic enhancement of R7227 by ritonavir in healthy adults
# Type: in vivo, human
# RECORDED CONDITIONS: human, plasma, oral, Day 12 (with ritonavir multiple dose), N 12 (set including extrapolated day 1 values); read-out: C12 h, GLSM
# Protocol: Subjects were screened for participation in this study within 21 days before dosing. The study enrolled 14 healthy volunteers (n=14 per group). The dosing schedule is illustrated below: [table] […] Primary PK parameters of […] that were determined are Cmax and AUC0→∞. Secondary PK parameters of […] that were measured include Tmax and AUC0→last, CL/F, t1/2, C12 hr and C24 h. […]

>  <COMPOUND>
CC(C)(C)OC(=O)N[C@H]1CCCCC/C=C\[C@@H]2C[C@@]2(C(=O)NS(=O)(=O)C2CC2)NC(=O)[C@@H]2C[C@@H](OC(=O)N3Cc4cccc(F)c4C3)CN2C1=O [R7227]

>  <concentration at 12 h>
0.36 ng/mL

$$$$

###

# ASSAY EXPLANATION: Pharmacokinetic enhancement of R7227 by ritonavir in healthy adults
# Format: in vivo, human
# RECORDED CONDITIONS: human, plasma, oral, Day 12 (with ritonavir multiple dose), N 12

>  <SMILES ENTRY>
CC(C)(C)OC(=O)N[C@H]1CCCCC/C=C\[C@@H]2C[C@@]2(C(=O)NS(=O)(=O)C2CC2)NC(=O)[C@@H]2C[C@@H](OC(=O)N3Cc4cccc(F)c4C3)CN2C1=O

>  <Cmax>
27.3 ng/mL

$$$$

###

# ASSAY EXPLANATION: Pharmacokinetic enhancement of R7227 by ritonavir in healthy adults
# Assay type: in vivo, human
# RECORDED CONDITIONS: human, plasma, oral, Day 3 (with ritonavir single dose), N 12 (set including extrapolated day 1 values); read-out: C12 h, GLSM
# Protocol: Subjects were screened for participation in this study within 21 days before dosing. The study enrolled 14 healthy volunteers (n=14 per group). The dosing schedule is illustrated below: [table] […] Primary PK parameters of […] that were determined are Cmax and AUC0→∞. Secondary PK parameters of […] that were measured include Tmax and AUC0→last, CL/F, t1/2, C12 hr and C24 h. […]

>  <SMILES ENTRY>
CC(C)(C)OC(=O)N[C@H]1CCCCC/C=C\[C@@H]2C[C@@]2(C(=O)NS(=O)(=O)C2CC2)NC(=O)[C@@H]2C[C@@H](OC(=O)N3Cc4cccc(F)c4C3)CN2C1=O

>  <concentration at 12 h>
0.55 ng/mL

$$$$

###

# ASSAY EXPLANATION: Pharmacokinetic enhancement of R7227 by ritonavir in healthy adults
# Format: in vivo, human
# RECORDED CONDITIONS: human, plasma, oral, 100 mg, Day 1 (alone), N 8, non-missing non-BLQ data from all three treatment days; read-out: C12 h, GLSM

>  <SMILES ENTRY>
CC(C)(C)OC(=O)N[C@H]1CCCCC/C=C\[C@@H]2C[C@@]2(C(=O)NS(=O)(=O)C2CC2)NC(=O)[C@@H]2C[C@@H](OC(=O)N3Cc4cccc(F)c4C3)CN2C1=O

>  <concentration at 12 h [ng/mL]>
0.02

$$$$

###

# ASSAY EXPLANATION: Pharmacokinetic enhancement of R7227 by ritonavir in healthy adults
# Assay type: in vivo, human
# RECORDED CONDITIONS: human, plasma, po, 100 mg, Day 12 (with ritonavir multiple dose), R7227 100 mg oral, N 12
ASSAY METRIC: AUC(0-inf) (ng·h/mL)

>  <SMILES ENTRY>
CC(C)(C)OC(=O)N[C@H]1CCCCC/C=C\[C@@H]2C[C@@]2(C(=O)NS(=O)(=O)C2CC2)NC(=O)[C@@H]2C[C@@H](OC(=O)N3Cc4cccc(F)c4C3)CN2C1=O

>  <VALUE MEASURED>
79.4

$$$$
